Provenance of the data: ChEMBL document CHEMBL1255305

experiment: Inhibition of Bocillin FL binding to PBP5/6 in Pseudomonas aeruginosa 27853 membranes
MEASURED_ATTRIBUTE: IC50

>>> result("C[C@@H](O)[C@H]1C(=O)N2C(C(=O)O)=C(S[C@@H]3CN[C@H](C(=O)N(C)C)C3)[C@H](C)[C@H]12 [MEROPENEM]")
"> 4 µg/mL"

Batch request: IC50 per item, same order as input.
1. CC(C)(O/N=C(\C(=O)N[C@@H]1C(=O)N2C(C(=O)[O-])=C(C[n+]3ccccc3)CS[C@H]12)c1csc(N)n1)C(=O)O [CEFTAZIDIME]
2. C[C@@H](O)[C@H]1C(=O)N2C(C(=O)O)=C(S[C@@H]3CN[C@H](CNS(N)(=O)=O)C3)[C@H](C)[C@H]12 [DORIPENEM]
3. C[C@H]1[C@H](NC(=O)/C(=N\OC(C)(C)C(=O)O)c2csc(N)n2)C(=O)N1S(=O)(=O)O [AZTREONAM]
4. C[C@@H](O)[C@H]1C(=O)N2C(C(=O)O)=C(SCCNC=N)C[C@H]12 [IMIPENEM ANHYDROUS]

Found:
1: > 4 µg/mL; 2: > 4 µg/mL; 3: > 4 µg/mL; 4: 1 µg/mL
